Origin of measurements: patent US20260317328A1

protocol details: Metabolic stability using human liver microsomes (HLM)
Assay type: in vitro ADME
condition: pH 7.4, read-out: % QH (Well stirred model)
Protocol: 1 mM stock solution of test compound was prepared in DMSO and diluted with Acetonitrile:Water (1:1) to get a 100 μM working concentration. 100 mL of Milli Q water was added to K2HPO4 (1.398 g) and KH2PO4 (0.27 g) to get final pH 7.4 solution of potassium phosphate buffer. […] The above mixture was pre incubated for 15 minutes at 37° C. […] 120 μL of supernatant was diluted with 120 μL of water and analyzed by LC-MS/MS [sample preparation].
quantity name: hepatic extraction ratio
Numbers only.

COc1ccc(-c2nc3c(NS(=O)(=O)c4ccc(C)cc4)ncnc3n2C)cc1 = 0.0077

In the following, a different compound is considered.
Tell me the measured hepatic extraction ratio of `CCc1ccc(S(=O)(=O)Nc2ncnc3c2nc(-c2ccc(OC)cc2)n3C)cc1` , please.
0.318

====

protocol details: Lipophilicity assay (n-octanol / phosphate buffer)
Assay type: physicochemical
condition: pH 7.4, 1-octanol/10 mM sodium phosphate buffer, room temperature; criteria: <0 low, 0-1 moderate, >2 high lipophilicity
quantity name: logD
Numbers only.

Please review the following examples before continuing.
CCc1ccc(S(=O)(=O)Nc2ncnc3c2nc(-c2ccc(OC)cc2)n3C)cc1 = 4.32
COc1ccc(-c2nc3c(NS(=O)(=O)c4ccc(C)cc4)ncnc3n2C)cc1 = 0.96

# context switch: different molecule, same logD
Consider the molecule COCCc1ccc(OCC(O)CNC(C)C)cc1 (stereo not drawn) [Metroprolol, reference compound] and give its measured logD.
-0.34
